system-name: T1, soluble IGF-1R (recombinant human IGF-1R extracellular domain, R&D Systems Cat. # 391-GR/CF) (human, UniProt P08069 31-935)
T1 construct: extracellular domain; Bought protein; coated on plates (phage ELISA, TRF) or Eu-labelled (TR-FRET); also called sIGF-1R; rhIGF-1R
assay-summary: phage ELISA
Assignment: determine reported ratio over background for the given binders.

[[record]]
binder = "SQAGSAFYAWFDQVLRTVHSA (on phage) [20E2Bβ-4-G6-IR]"
result = "6.2 ratio"

[[record]]
binder = "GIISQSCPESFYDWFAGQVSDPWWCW (on phage) [H2CA-4-G9-IGFR]"
result = "9.5 ratio"

[[record]]
binder = "TLDGGSFEEQFYDWFVRQLSYRTNPD (on phage) [H2CA-4-G11-IGFR]"
result = "9.5 ratio"


State recorded ratio over background for all listed binders.
1. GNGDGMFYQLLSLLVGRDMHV (on phage) [20E2B-3-C2-IGFR]
2. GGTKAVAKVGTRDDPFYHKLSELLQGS (on phage) [B6Hα-4-G8-IR]
3. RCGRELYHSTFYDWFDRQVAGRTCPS (on phage) [H2CA-1-A7-IGFR]
4. GFREGNFYEWFQAQVT (on phage) [E4Dα-4-H2-IR]

1: 8.9 ratio; 2: 6.1 ratio; 3: 2.2 ratio; 4: 33.9 ratio
